- MEASUREMENT_NOTES: soluble on expression in E. coli; label from the status in PepcDB or PDB records
EXPERIMENTAL_ENDPOINT: soluble on expression in E. coli

MTQPLVGKQILIVEDEPVFRSLLDSWFSSLGATTALAGDGVDALELMGRFTPDLMICDIAMPRMNGLKLVENLRNRGDQTPILVISATENMADIAKALRLGVEDVLLKPVKDLNRLRETVFACLYPNMFNSRVEEEERLFRDWDAMVSNPTAAAQLLQELQPPVQQVISHCRINYRQLVSADQPGLVLDIAPLSDNELAFYCLDVTRAGDNGVLAALLLRALFNGLLQDQLGQQKHRLPELGALLKQVNHLLRQANLPGQFPLFVGYYHSELKNLILVSAGLNATLNTGAHQVQISSGVPLGTLGNAYLNQLSQRCDSWQCQIWGAGGRLRLMLSAE: not soluble
GSMAEGRGSRERPDVETQKTELGALMGTTLQRGAQWYLIDSRWFKQWKKYVGFDSWDMYNVGEHNLFPGPIDNSGLFSDPESQTLKEHLIDELDYVLVPAEAWNKLLNWYGCVEGQQPIVRKVVEHGLFVKHCKVEVYLLELKLCENSDPTNVLSCHFSKADTIATIEKEMRKLFNIPAERETRLWNKYMSNTYEQLSKLDNTIQDAGLYQGQVLVIEPQNEDGTWPRQSL: soluble
MEVDTSSSSSSEDECDPSSPSTAYIHSASVRLSVGTEEAARTVADVIKIDKEPRRSGARREVCSEGEFVVIKIESKDPKSLSKSIANAVDMIDLSVKTIKLCENLGKSKENGLKRKLSNGSQA: not soluble
KTTVIPESLKILGWVEFTRLEPWGIKTPARIDTGANTSSMSARDINVFKRNGKTWVRFTFDFKKGTAERSIEIERPLVRMVKIKQHDGPSQERPVISMEICLADEIREAEFDLIDRRALNYPVLLGRKALAGYVVVDPARAYLTKAV: not soluble
MTDNSQFHAASALVQAAHTVSVVGHLRPDADAIGSVAATVAALQQLGKDAVGAIGQLDSMPENLYTIPGASNIKFGDSLPESDLIIVVDCGSIERTGAFESIIVNNPDKVLVVDHHATNPGFGAVNLIDVEAESTTTILYDWFDAMSVQITPDIAHGLYAGLLTDTGCFRWGRPVMHDMAKELMEFGLDIRAISSALLDQTSVDDLRLVGQIVSRIELREAGPYTLAVLVADFDTINGRSRAVVEGLIEMVRAVEGADFGAVFKEYERGVYTVSLRSSNLSVASLAVHLGGGGHIPAAGYTARGTEIEALDTLIEATVTLGESLRSSAHVDVLEHHHHHH: soluble
SNAIIAGETSIPSQGENMPAYHARPKNADGPLPIVIVVQEIFGVHEHIRDLCRRLAQEGYLAIAPELYFRQGDPNEYHDIPTLFKELVSKVPDAQVLADLDHVASWAARHGGDAHRLLITGFCWGGRITWLYAAHNPQLKAAVAWYGKLVGEKSLNSPKHPVDIAVDLNAPVLGLYGAKDASIPQDTVETMRQALRAANATAEIVVYPEADHAFNADYRASYHEESAKDGWQRMLAWFAQY: soluble

---

- MEASUREMENT_NOTES: soluble on expression in E. coli; label from the status in PepcDB or PDB records
EXPERIMENTAL_ENDPOINT: soluble on expression in E. coli

MDFASSDGGGRTTTSAKIVVAGGFGVGKTTFVGAVSEINPLRTEAVMTSASAGIDDLTHTGDKTTTTVAMDFGRITLDQDLILYLFGTPGQDRFWFMWDDLVRGAIGAVVLVDTRRLADCFPAVDYFENSGLPFVIALNGFDGHQPYNPEEVREALQIGPDAPIITTDARHRADAKSALITLVEHALMARLRLEHHHHHH: not soluble
MGSDKIHHHHHHMKVILHIGAHRCATRSFQNYMTRKSDTLSQYGIAFMGPERTRNGLLHGIQPGAISVTGRDPMARARGRIALQLAGLQNAGTASVVISDASMLQPLEQCFALGALYPAAGEHLARLDHAFDGAVSDVMLNIRSPEMFWASALAVRLEHSLRMPNAATLSRIAEATRSWRDVIQDIYCAMPGARIRVFPYEVFATQPEAQLSAVTGVDCPHARGAFRLNASARLPELRAELPPRLAKLLPEDEGRWMPFSEAEAARLRESYYDDMMWLVGGADGLAELVEDPNKADATATPPAPDLVVQEDLTRGRMHDPDTGRLAGTG: not soluble

---

- MEASUREMENT_NOTES: soluble on expression in E. coli; label from the status in PepcDB or PDB records
EXPERIMENTAL_ENDPOINT: soluble on expression in E. coli

MRSQSTHSQSMRSDIYLLLATLLRDVPSAELCAFLAELDFEANGTEMAKAWQAMSAAAQNAQADSLADEYQELFIGIGRGEVVPFASWHLTGSLMEKPLADIRDDLSRLGLERDEQVREPEDHISALCETMAYLCEESGDENAAEETQQAFFNRHIAPWFGKLVSQIRQAPHAQFYLAVAQLLDAFLSLEQVAMTQAPSSRKNRYRIEVKNLTDKAEQ: not soluble
FGTFKSAITDYHGYEYKNHGYGLALTDTDLLGGSSGSLVFNQDKKISSIYSAATESDSVGYAQLLPVPKDV: not soluble
MICYEYINDYIRKTIKKNEGFLAELEEFAKENHVPIVHPEVASLLRVIGLTLRPSRVLEVGTAIGYSAILFSTFLEPGGRIDTIDRYELMLEKARANVKKAGLQDVINIIEGDALEVLKCLEHKYDMIFLDAAKGQYPEFLPECLRLLRSGGLLISDNILYKGMVAKDELVVRRKKTIVKRLRNYLETICNTDELETSILPVGDGLAISFKK: not soluble

---

- MEASUREMENT_NOTES: soluble on expression in E. coli; label from the status in PepcDB or PDB records
EXPERIMENTAL_ENDPOINT: soluble on expression in E. coli

MGSDKIHHHHHHMVIENAMNIQFVLKDFSTFGGVERIQYNLAKKFKNDGHNVSFYILNGDSVALDTSHEFIIHKGSKSGFITFLFEIIKLRNNIYKNRIDVVIAAKEQANIAAFFATIFTKVSTIYTRHSALNVSEQRINERSVLLIYSLLTLSKGKVVTVSHDLKYSLLKSLPWGKDKIHVCPNPVLTESIYLKSLQPITDFKLPLSYICSVGRLTRTKGFDVLIQAYKQCITKELNFPDLVIAGSGEEYASLVKLTQELNVADKVHFLGHIDNPYVLMKNSSGFVLSSRNEGLPTVLIEAIALGTNVVSTDCLTGPREILDGGRIGKLVPVEDVRSLAEAMLTLPLHKLSESEIREMDRYSLEQSAIAYFKLFTKKSH: not soluble
MSLDRTLRGRVEGKVVLITGATSGIGKATARKLAEAGAKVLTIARDEHKIAETQAEFAELGLTLQVYQGDLADLSQGEAITRQIVAEHGGVDILINNAGRSIRRAIEDSFDRFHDLERTMQLNYFGTLKVIMGLLPTMIEKKKGHIINISSIGVLTNAPRFSAYVASKSALDAWVRTAASEFADKGVNFSIINMPLVKTPMVAPTKVYEQVPMMTPEEAADLVCDTIINKHVRLATRLGVFGQVIHALAPRVAQVIMNTSEGHHHHHH: not soluble
MGSDKIHHHHHHMTKQLLVLQSDFGISDGAVSAMYGVINSVSKDLQIYDLTHQIPQFNIWEASYRLLQTVTYWPEDTIFVSIVDPGVGSKRRSVVVLTEDGHYIITPDNGTLTHIAHYGTIKEVRLIDEEKNRLPKSGASHTFHGRDIFAYTAARLAAGVINFEDIGPSATPDSIVSLSLSDSYLEGEQAFGTIDIIDRPFGNLWTNIRRTDFLQLGANYGDSIEVLIKHHDRVVYKNFVTYSRSFADLRIGEALIYVNSLDNLGLGINQGSFVDAYSVGTGTSWKVTLKKV: not soluble
MSLNIPLSGIIPPLVTPLLDDDVLDVEGLQRLIEHLIAGGVHALFVLGTTGESQSLSYKLRMEMIKNTCRIAKGRLPVLVCISDTSIVESVNLACLAADHGADAVVSAPPYYFATGQPELIEFYEHLLPQLPLPLFLYNMPTHTKVNFAPATIQRIAENPGVIGFKDSSANTVYFQSVMYAMKDNPDFSMLVGPEEIMAESVLLGAHGGVNGGANMFPELYVSLYNAAKNADMEEVRRLQEKVMQISATIYTVGQHGSSYLKGLKCALSLLGICSDYVAAPFHKFEQRERGKIWKALQNLGVDEGHHHHHH: soluble
DEQEKLLRLVDNSVELMSLLGTNNINSYINKAGMELLGFDTMEQVLRTPISELHLKEDFEKVSANVITSLQDKGRWSGQMNVRNLKSGEVIPVYNNTVRIDDPATGEILAFGAVMRDMR: not soluble
MKVAVLPGDGIGPEVTEAALKVLRALDEAEGLGLAYEVFPFGGAAIDAFGEPFPEPTRKGVEEAEAVLLGSVGGPKWDGLPRKIRPETGLLSLRKSQDLFANLRPAKVFPGLERLSPLKEEIARGVDVLIVRELTGGIYFGEPRGMSEAEAWNTERYSKPEVERVARVAFEAARKRRKHVVSVDKANVLEVGEFWRKTVEEVGRGYPDVALEHQYVDAMAMHLVRSPARFDVVVTGNIFGDILSDLASVLPGSLGLLPSASLGRGTPVFEPVHGSAPDIAGKGIANPTAAILSAAMMLEHAFGLVELARKVEDAVAKALLETPPPDLGGSAGTEAFTATVLRHLA: soluble
EVKEEDAFYSKKCKLFYKKDNEFKEKGIGTLHLKPTANQKTQLLVRADTNLGNILLNVLIPPNMPCTRTGKNNVLIVCVPNPPIDEKNATMPVTMLIRVKTSEDADELHKILLEKKDA: soluble
MKTPALPTVQSPLLSSLPGVKHAFFTRQGGVSKGIYDSLNVGRGSQDEPADVEENRARIARWFGGGPEDLNVCYQIHSTIAIVADGSWGDARPEGDAVVSKTPGVICGAMAADCAPVLLVDPEARIVAAAHAGWRGALDGVVQSAVDRMVELGASPANITGVVGPCIGPKSYEVGLEFLHRFEADCPGSGRFFKPGASEDKRFFDLPAFVLDRLATAGVERREWVGRDTRAEEEWFFSNRRAFLNNDGDYGRLLSAITLEA: soluble
MAHHHHHHMQSNSAPVSYGAQLRASMQTLRANDTQFEQFTRGLGAVLQQWTALQLVAQHCDSRAPAVLYEDLCAWHKHDGEVYVDDMEVYFEEFFDNIRSARIEDDSMQEVGTVLHDMYCRCCLNDFSLVEHYLETLAMYVQTNPVAMSVNGGTNENLEDDAEEDAELGGDAVCEEGVDNEDEESEPMQAPTPKAPQQPPQPPRHQQQPQRKKRKNTSVRSRDGWNIVQ: not soluble
MLDAFAKVVAQADARGEFLTNAQFDALSNLVKEGNKRLDAVNRITSNASTIVANAARALFAEQPQLIQPGGNAYTNRRMAACLRDMEIILRYVTYAILAGDSSVLDDRCLNGLRETYQALGTPGSSVAVAIQKMKDAAIAIANDPNGITPGDCSALMSEIAGYFDRAAAAVA: soluble
MGSDKIHHHHHHMYVAVKGGETAIANAHSLLADRRRGDRSLPTMTVDQIVEQLTLAVGRVMAEASLYDRKLAALAIKQARGDMIEAIFLLRAYRTTLPRFGLSEPVDTGAMRIERRISATYKDLPGGQLLGPTFDYTHRLLDPSLLEEGDVEPPVQKIPTSEAAMRVSDILREEGLIEPDGDMPEDHLAGDITRQPIEFPMARDLRLQSLARGDEGFLLALAYSTQRGYGRSHPFAGEIRLGEVEVELDVPELGFAVSLGRIQVTECQMVNQFKGSSKAPPQFTRGYGLVFGQSERKAMAMSLVDRSLRAEELGEDITAPAQDQEFVLSHCDNVQATGFVEHLKLPHYVDFQAELDLVRRMRSEHEQARQQGLDLSEAAE: not soluble
